- ASSAY TEXT: Blood brain barrier permeability, brain and plasma level after IV injection (LC/MS/MS)
- Format: in vivo
- RUN PARAMETERS: SD, rat, brain, 30 mg/kg, i.v. 30 mg/kg, sampling time 15 min, healthy adult rats, n = 2
PARAMETER MEASURED: Kp at 0.25 h

>>> value_reported("CC[C@@H](CO)Nc1nc(NCc2ccccc2)c2ncn(C(C)C)c2n1 [(S)-roscovitine]")
0.17
